target: GDP-bound KRAS wild-type protein (Homo sapiens, UniProt P01116); test: Binding to KRAS by surface plasmon resonance (SPR), Single Cycle Kinetics; conditions: SPR Single Cycle Kinetics, GDP-bound KRAS wild-type protein, 1:1 binding model; read-out: KRAS KD
Sequence (P01116 whole entry): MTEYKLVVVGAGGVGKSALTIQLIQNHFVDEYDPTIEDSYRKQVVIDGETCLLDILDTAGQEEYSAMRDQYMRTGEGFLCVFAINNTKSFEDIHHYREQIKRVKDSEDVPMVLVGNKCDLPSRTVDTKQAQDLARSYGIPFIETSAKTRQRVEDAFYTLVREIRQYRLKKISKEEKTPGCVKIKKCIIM
Where a SMILES comes first, the peptide text is derived from it. Bridges are numbered along the chain shown (N, C = ends). [ ]: non-standard residue; d: D form. The star is where a group is joined. hPhe(3-Cl-4-CF3) = N[C@@H](CCc1ccc(C(F)(F)F)c(Cl)c1)C(=O)O; NPrPhe(4-CF3) = CCCN[C@@H](Cc1ccc(C(F)(F)F)cc1)C(=O)O; NMeGly(cPent) = CN[C@H](C(=O)O)C1CCCC1; Hyp = O=C(O)[C@@H]1C[C@@H](O)CN1; NMeD = CN[C@@H](CC(=O)O)C(=O)O; NMeL = CN[C@@H](CC(C)C)C(=O)O; Morpholide = C1CN(*)CCO1; Ac5c = NC1(C(=O)O)CCCC1; Sar = CNCC(=O)O
RESULT TYPE: Kd (nM)
State the answer as a number, implicitly in nM.

Some solved cases for reference:
COMPOUND: CCCN1C(=O)CN(C)C(=O)CN(C)C(=O)[C@H]([C@@H](C)CC)NC(=O)[C@H](CC(C)C)N(C)C(=O)C[C@@H](C(=O)N2CCOCC2)N(C)C(=O)[C@H](C2CCCC2)N(C)C(=O)C2(CCCC2)NC(=O)[C@@H]2C[C@@H](OC)CN2C(=O)[C@H](CCc2ccc(C(F)(F)F)c(Cl)c2)NC(=O)CN(C)C(=O)[C@@H]1Cc1ccc(C(F)(F)F)cc1 [PP0262] ([NMeL]I[Sar][Sar][NPrPhe(4-CF3)][Sar][hPhe(3-Cl-4-CF3)][Hyp](Me)[Ac5c][NMeGly(cPent)][NMeD]-Morpholide; lactam N-11)
ASSAYED SYSTEM: GDP-bound KRAS wild-type protein (Homo sapiens, UniProt P01116)
RECORDED VALUE: 0.044
//
COMPOUND: CCC[C@H]1C(=O)N[C@@H]([C@@H](C)CC)C(=O)N2CCC[C@H]2C(=O)N(C)[C@H]2C/C=C\CCN(C2=O)[C@@H](Cc2ccc(C(F)F)cc2)C(=O)N(C)CC(=O)N[C@@H](CCc2ccc(Cl)c(Cl)c2)C(=O)N2C[C@H](OCC)C[C@H]2C(=O)NC2(CC(C)(C)C2)C(=O)N(C)[C@@H](C(CC)CC)C(=O)N(C)[C@H](C(=O)N(C)C)CC(=O)N1C [PP2637]
ASSAYED SYSTEM: GDP-bound KRAS wild-type protein (Homo sapiens, UniProt P01116)
RECORDED VALUE: 1

In the following, a different compound is considered.
Kd for CC[C@H](C)[C@@H]1NC(=O)[C@H](CC(C)C)N(C)C(=O)C[C@@H](C(=O)N2CCOCC2)N(C)C(=O)[C@H](C2CCCC2)N(C)C(=O)C2(CCCC2)NC(=O)[C@@H]2CCCN2C(=O)[C@H](CCc2ccc(C(F)(F)F)c(Cl)c2)NC(=O)CN(C)C(=O)[C@H](Cc2ccc(OC(F)(F)F)cc2)N2C/C=C\CC[C@@H](C2=O)N(C)C(=O)CN(C)C1=O [PP0610] ? 49

----------
molecular target: GDP-bound KRAS wild-type protein (Homo sapiens, UniProt P01116); experiment: Binding to KRAS by surface plasmon resonance (SPR), Single Cycle Kinetics; settings: SPR, Single Cycle Kinetics, 1:1 binding model; GDP-bound KRAS wild-type protein; read-out: KRAS KD
pKd: −log10 of the molar value.
# if value of pKd reaches 9, tag true (1); if it stays below, tag false (0)

MOLECULE: CCO[C@@H]1C[C@H]2C(=O)NC3(CC(F)(F)C3)C(=O)N(C)[C@@H](C3CCCC3)C(=O)N(C)[C@H](C(=O)N(C)C)CC(=O)N(C)[C@@H](CC)C(=O)N[C@@H]([C@@H](C)CC)C(=O)N(C)CC(=O)N(C)[C@H]3C/C=C\CCN(C3=O)[C@@H](Cc3ccc(C(F)(F)F)cc3)C(=O)N(C)CC(=O)N[C@@H](CCc3cc(F)c(C(F)(F)F)c(F)c3)C(=O)N2C1 [PP1274]
GROUP: true (1)

MOLECULE: CCO[C@@H]1C[C@H]2C(=O)NC3(CCC3)C(=O)N(C)[C@@H](C3CCCC3)C(=O)N(C)[C@H](C(=O)N3CCCC3)CC(=O)N(C)[C@@H](CC3CCCCC3)C(=O)N[C@@H]([C@@H](C)CC)C(=O)N(C)CC(=O)N(C)[C@H]3C/C=C\CCN(C3=O)[C@@H](Cc3ccc(C(F)(F)F)cc3)C(=O)N(C)CC(=O)N[C@@H](CCc3cc(F)c(C(F)(F)F)c(F)c3)C(=O)N2C1 [PP1419]
GROUP: true (1)

MOLECULE: CCO[C@@H]1C[C@H]2C(=O)NC3(CCC3)C(=O)N(C)[C@@H](C3CCCC3)C(=O)N(C)[C@H](C(=O)N(C)C)CC(=O)N(C)[C@@H](COC3CC3)C(=O)N[C@@H]([C@@H](C)CC)C(=O)N(C)CC(=O)N(C)[C@H]3C/C=C\CCN(C3=O)[C@@H](Cc3ccc(C(F)(F)F)cc3)C(=O)N(C)CC(=O)N[C@@H](CCc3cc(F)c(C(F)(F)F)c(F)c3)C(=O)N2C1 [PP1268]
GROUP: true (1)

MOLECULE: CCO[C@@H]1C[C@H]2C(=O)NC3(CCC3)C(=O)N(C)[C@@H](C(CC)CC)C(=O)N(C)[C@H](C(=O)N(C)C)CC(=O)N(C)[C@@H](CC3CC3)C(=O)N[C@@H]([C@@H](C)CC)C(=O)N(C)CC(=O)N(C)[C@H]3C/C=C\CCN(C3=O)[C@@H](Cc3ccc(C(F)(F)F)cc3)C(=O)N(C)CC(=O)N[C@@H](CCc3ccc(Cl)c(Cl)c3)C(=O)N2C1 [PP1219]
GROUP: true (1)

Okay, next one:
Given the entry CCO[C@@H]1C[C@H]2C(=O)NC3(CC(F)(F)C3)C(=O)N(C)[C@@H](C(CC)CC)C(=O)N(C)C(C(C)C)CC(=O)N(C)[C@@H](CC)C(=O)N[C@@H]([C@@H](C)CC)C(=O)N(C)CC(=O)N(C)[C@H]3C/C=C\CCN(C3=O)[C@@H](Cc3ccc(C(F)(F)F)cc3)C(=O)N(C)CC(=O)N[C@@H](CCc3cc(F)c(C(F)(F)F)c(F)c3)C(=O)N2C1 (stereo partly drawn) [PP1591] , answer whether its pKd meets or surpasses 9. false (0)

----------
system: human lung cancer strain NCI-H441; assay: cells; conditions: NCI-H441, 96 h, read-out: NCI-H441 IC50 (nM), NCI-H441 cell proliferation, 4 days, CellTiter-Glo;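 further: cell proliferation inhibition after four days measured by CellTiter-Glo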
Field: label. Allowed values: satisfied (IC50 < 5 nM) or not satisfied (IC50 >= 5 nM).

Check out these entries, answers already filled in.
COMPOUND: CCO[C@@H]1C[C@H]2C(=O)NC3(CCC3)C(=O)N(C)[C@@H](C3CCCC3)C(=O)N(C)[C@H](C(=O)N(C)CC)CC(=O)N(C)[C@@H](C(C)C)C(=O)N[C@@H]([C@@H](C)CC)C(=O)N(C)CC(=O)N(C)[C@H]3C/C=C\CCN(C3=O)[C@@H](Cc3ccc(C(F)(F)F)cc3)C(=O)N(C)CC(=O)N[C@@H](CCc3ccc(C(F)(F)F)c(OC)c3)C(=O)N2C1 [PP2019]
GROUP: satisfied
//
COMPOUND: CCCOC[C@H]1C(=O)N[C@@H]([C@@H](C)CC)C(=O)N(C)CC(=O)N(C)[C@H]2C/C=C\CCN(C2=O)[C@@H](Cc2ccc(C(F)(F)F)cc2)C(=O)N(C)CC(=O)N[C@@H](CCc2ccc(C(F)(F)F)c(OC)c2)C(=O)N2C[C@@H](C)C[C@H]2C(=O)NC2(CCC2)C(=O)N(C)[C@@H](C2CCCC2)C(=O)N(C)[C@H](C(=O)N(C)CC)CC(=O)N1C [PP2027]
GROUP: not satisfied
//
COMPOUND: CCO[C@@H]1C[C@H]2C(=O)NC3(CC(C)(C)C3)C(=O)N(C)[C@@H](C3CCCC3)C(=O)N(C)[C@H](C(=O)N(C)C)CC(=O)N(C)[C@@H](CC(F)F)C(=O)N[C@@H]([C@@H](C)CC)C(=O)N(C)CC(=O)N(C)[C@H]3C/C=C\CCN(C3=O)[C@@H](Cc3ccc(C(F)(F)F)cc3)C(=O)N(C)CC(=O)N[C@@H](CCc3ccc(C(F)(F)F)c(Cl)c3)C(=O)N2C1 [PP1747]
GROUP: satisfied
//
COMPOUND: CCO[C@@H]1C[C@H]2C(=O)NC3(CC(C)(C)C3)C(=O)N(C)[C@@H](C3CCCC3)C(=O)N(C)[C@H](C(=O)N(C)C)CC(=O)N(C)[C@@H](CC)C(=O)N[C@@H]([C@@H](C)CC)C(=O)N(C)CC(=O)N(C)[C@H]3C/C=C\CCN(C3=O)[C@@H](Cc3ccc(C)cc3)C(=O)N(C)CC(=O)N[C@@H](CCc3ccc(C(F)(F)F)c(OC)c3)C(=O)N2C1 [PP1873]
GROUP: not satisfied
//
COMPOUND: CC[C@H](C)[C@@H]1NC(=O)[C@H](CC(C)C)N(C)C(=O)C[C@@H](C(=O)N(C)C)N(C)C(=O)[C@H](C2CCCC2)N(C)C(=O)C2(CCC2)NC(=O)[C@@H]2C[C@@H](C)CN2C(=O)[C@H](CCc2ccc(C(F)(F)F)c(Cl)c2)NC(=O)CN(C)C(=O)[C@H](Cc2ccc(C)cc2)N2CC/C=C\C[C@@H](C2=O)N(C)C(=O)CN(C)C1=O [PP1854]
GROUP: not satisfied

Okay, next one:
Confirm or reject: IC50 of CCC[C@H]1C(=O)N[C@@H]([C@@H](C)CC)C(=O)N(C)CC(=O)N(C)[C@H]2C/C=C\CCN(C2=O)[C@@H](Cc2ccc(C(F)(F)F)cc2)C(=O)N(C)CC(=O)N[C@@H](CCc2ccc(C(F)(F)F)c(Cl)c2)C(=O)N2C[C@H](OCC)C[C@H]2C(=O)NC2(CC(C)(C)C2)C(=O)N(C)[C@@H](C2CCCC2)C(=O)N(C)[C@H](C(=O)N(C)C)CC(=O)N1C [PP1748] lies strictly below 5 nM satisfied
